- System: VSV-SARS-CoV-2
- assay.comment: organism not typed
- Format: cell-based
- settings: Vero C1008, read-out: EC50 against VSV-SARS-CoV-2 in Vero E6 cells, Vero E6 cells, pre-treated 1 h, 24 h infection
readout.name: EC50

Consider the molecule shown here: CCCC[C@@H](C=O)NC(=O)[C@H](CC(C)C)NC(=O)OCc1ccccc1 What is its recorded EC50?
< 0.5 µM

* * *

- System: SARS-CoV-2-mNeonGreen
- assay.comment: SARS-CoV-2-mNeonGreen infection of Vero E6 cells
- Format: cell-based
- settings: Severe acute respiratory syndrome coronavirus 2, Vero C1008, read-out: EC50 against SARS-CoV-2-mNeonGreen
readout.name: EC50 (µM)
Record the value in µM, omitting the unit from your answer.

# get_value(readout='EC50', item= CC(=O)Oc1ccccc1C(=O)Nc1ncc([N+](=O)[O-])s1 [Nitazoxanide, nitazoxanide] )
4.9

Source listed as paper PMC10936414.
